Assay: Cytotoxicity against mouse F3 cells by MTT assay
Type: cell-based
Settings: n2a #58 f3
test readout: Activity

Some molecules with recorded Activity:
molecule="CC1=NN(c2ccccc2)C(=O)C1CC(C)C (stereo unspecified)" test_readout=Activity test_result="> 1000 nM"
molecule=COC(=O)NC1=NN(c2ccccc2)C(=O)C1 test_readout=Activity test_result="> 1000 nM"
molecule=CC1=NN(c2ccc(Cl)cc2)C(=O)C1 test_readout=Activity test_result="> 100 nM"
molecule=O=C(NC1=NN(c2ccccc2)C(=O)C1)Oc1ccccc1 test_readout=Activity test_result="> 1000 nM"
molecule="CC1=NN(c2ccccc2)C(=O)C1c1ccccn1 (stereo unspecified)" test_readout=Activity test_result="> 1000 nM"

Look up Activity for this molecule: O=C1CC(C(F)(F)F)=NN1c1ccccc1 > 1000 nM

====

Assay: Superoxide dismutase like activity assessed as inhibition of WST1 tetrazolium formation at 1 mM in presence of 2 mM Cu(II)
Type: functional
Set-up: scale not given: the % may be the effect or the level left
Listing: Activity of selected compounds
Give just the number in %; leave the unit off.

Some compounds with recorded Activity:
compound=O=C(NC1=NN(c2ccccc2)C(=O)C1)Oc1ccccc1 test_result=11.6
compound=CC1=NN(c2ccccc2)C(=O)C1 test_result=5.7
compound=O=C(NC1=NN(c2ccccc2)C(=O)C1)c1ccccc1 test_result=3.2
compound="CC1=NN(c2ccccc2)C(=O)C1C1CC1 (stereo unspecified)" test_result=35.4
compound=O=C1CC(C(F)(F)F)=NN1c1ccccc1 test_result=7.4

Kindly consider the entry below.
Look up Activity for this compound: O=C1CC(c2ccc([N+](=O)[O-])cc2)=NN1c1ccccc1 11.9

====

System: ScN2a
Assay: Cytotoxicity against mouse ScN2a cells by MTT assay
Type: cell-based
Listing: Activity of selected compounds

Some compounds with recorded Activity:
compound=O=C1CC(c2ccccc2)=NN1c1ccccc1 test_result="> 100 nM"
compound="CC1=NN(c2ccccc2)C(=O)C1c1ccccc1 (centres undefined)" test_result="> 100 nM"
compound=O=C(NC1=NN(c2ccccc2)C(=O)C1)c1ccccc1 test_result="> 1000 nM"

Enter reported Activity observed with ScN2a for CC1=NN(c2ccccc2)C(=O)C1c1ccccn1 (centres undefined) > 1000 nM

Same for COC(=O)NC1=NN(c2ccccc2)C(=O)C1 > 1000 nM

====

Test: Superoxide dismutase like activity assessed as inhibition of WST1 tetrazolium formation at 1 mM
Type: functional
Parameters: scale not given: the % may be the effect or the level left
test readout: Activity
Value and unit, in that order.

compound=O=C(NC1=NN(c2ccccc2)C(=O)C1)Oc1ccccc1 test_result=5.6%
compound="CC1=NN(c2ccccc2)C(=O)C1C1CC1 (stereo unspecified)" test_result=15.9%
compound=O=C(NC1=NN(c2ccccc2)C(=O)C1)c1ccccc1 test_result=9.2%
compound=O=C1CC(c2ccc([N+](=O)[O-])cc2)=NN1c1ccccc1 test_result=1.8%
compound=O=C1CC(C(F)(F)F)=NN1c1ccccc1 test_result=13.4%

Kindly consider the entry below.
Look up Activity for this compound: CC1=NN(c2ccccc2)C(=O)C1 0.6%

====

Tested on: ScN2a
Test: Cytotoxicity against mouse ScN2a cells by MTT assay
Assay type: cell-based
test readout: Activity

Some compounds with recorded Activity:
compound=COc1ccc(N2N=C(C)CC2=O)cc1 test_readout=Activity test_result="> 100 nM"
compound=CC1=NN(C2CCCCC2)C(=O)C1 test_readout=Activity test_result="> 1000 nM"
compound=O=C(NC1=NN(c2ccccc2)C(=O)C1)NC1CCCC1 test_readout=Activity test_result="> 1000 nM"
compound=O=C1CC(Cc2ccccc2)=NN1c1ccccc1 test_readout=Activity test_result="> 1000 nM"

Enter reported Activity observed with ScN2a for O=C(NC1=NN(c2ccccc2)C(=O)C1)Oc1ccccc1 > 1000 nM

Same for O=C1CC(C(F)(F)F)=NN1c1ccccc1 > 1000 nM

Same for CC1=NN(c2ccccc2)C(=O)C1C(=O)c1ccccc1 (centres undefined) > 1000 nM

Same for O=C(Nc1ccccc1)C1=NN(c2ccccc2)C(=O)C1 > 1000 nM

Same for O=C1CC(c2ccc([N+](=O)[O-])cc2)=NN1c1ccccc1 > 1000 nM

====

Listing: Activity of selected compounds
Test system: ScN2a
Experiment: Cytotoxicity against mouse ScN2a cells by MTT assay
Assay type: cell-based

compound="CC1=NN(c2ccccc2)C(=O)C1C1CC1 (stereo not given)" test_result="> 1000 nM"
compound=CC1=NN(c2ccc(Cl)cc2)C(=O)C1 test_result="> 100 nM"
compound=COc1ccc(C2=NN(c3ccccc3)C(=O)C2)cc1 test_result="> 100 nM"
compound=C=C(C)C1=NN(c2ccccc2)C(=O)C1 test_result="> 1000 nM"

Kindly consider the entry below.
Look up Activity for this compound: CC1=NN(c2ccccc2)C(=O)C1CC(C)C (stereo not given) > 1000 nM
